# key: entry, value: kd
Target: cynomologus (cyno) ENTPD2
Sequence (as listed by the source): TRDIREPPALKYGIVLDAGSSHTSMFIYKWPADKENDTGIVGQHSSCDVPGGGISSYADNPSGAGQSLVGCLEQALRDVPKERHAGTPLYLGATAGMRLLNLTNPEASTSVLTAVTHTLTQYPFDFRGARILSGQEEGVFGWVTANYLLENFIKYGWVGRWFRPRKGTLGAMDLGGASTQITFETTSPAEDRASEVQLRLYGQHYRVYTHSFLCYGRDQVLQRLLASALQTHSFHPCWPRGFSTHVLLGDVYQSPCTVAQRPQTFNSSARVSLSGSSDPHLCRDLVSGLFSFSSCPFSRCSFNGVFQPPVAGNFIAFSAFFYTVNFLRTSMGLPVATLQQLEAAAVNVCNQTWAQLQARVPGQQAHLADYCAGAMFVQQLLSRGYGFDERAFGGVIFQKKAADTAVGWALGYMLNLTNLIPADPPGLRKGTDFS
Test: Biacore (SPR) affinity to cyno ENTPD2 ECD
Format: binding, cynomolgus monkey
Conditions: 25° C.
A number alone suffices; assume s⁻¹.

{"molecule": "mAb5: humanized anti-human ENTPD2 antibody from mAb16; VH SEQ ID NO: 46, VL SEQ ID NO: 64 (antibody, V domains shown) VH: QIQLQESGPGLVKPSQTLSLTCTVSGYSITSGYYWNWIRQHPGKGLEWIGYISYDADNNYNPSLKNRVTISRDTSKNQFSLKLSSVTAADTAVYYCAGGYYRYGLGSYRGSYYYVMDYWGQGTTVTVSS VL: ETVLTQSPATLSVSPGERATISCKASQSVDYDGNSYMNWYQQKPGQAPRLLIYAASNLESGIPARFSGSGSGTDFTLTISSVEPEDAATYYCQQSNEDPPTFGGGTKLEIK", "readout.kind": "kd", "measurement.units": "s⁻¹", "measured.number": 0.003}

Attention now turns to another entry.
Input: May I ask what kd has been recorded for mAb2: humanized anti-human ENTPD2 antibody from mAb17; VH SEQ ID NO: 25, VL SEQ ID NO: 29 (antibody, V domains shown) VH: QVQLVQSGAEVVKPGASVKISCKASGYTFTDYNMDWVKQAPGQRLEWIGDINPKYDISTYNQQFKGKATITVDKSASTAYMELSSLRSEDTAVYYCARRGFFLYYGINYYYFDVWGQGTLVTVSS VL: EIVLTQSPATLSASPGERITLSCSASSSVSYIHWYQQKPGQAPRLLIYSTSNLASGIPARFSGSGSGTFYTLTISSVEPEDAAVYYCHQWSSYPWTFGGGTKLEIK ?
Output: 0.0012
